The reported numbers originate from ChEMBL document CHEMBL1201862.

target: Heat shock factor protein 1 (Mus musculus, UniProt P38532); test: enhancement of HSF1-driven luciferase signal – cell-based, NIH3T3, luminescence, dose retest, confirmation (AID 435004); assay type: functional;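 further: stress induced by proteasome inhibitor MG132 added 30 min after compound; actives raise luminescence as potentiators of the MG132 stress response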
Sequence (P38532 whole entry): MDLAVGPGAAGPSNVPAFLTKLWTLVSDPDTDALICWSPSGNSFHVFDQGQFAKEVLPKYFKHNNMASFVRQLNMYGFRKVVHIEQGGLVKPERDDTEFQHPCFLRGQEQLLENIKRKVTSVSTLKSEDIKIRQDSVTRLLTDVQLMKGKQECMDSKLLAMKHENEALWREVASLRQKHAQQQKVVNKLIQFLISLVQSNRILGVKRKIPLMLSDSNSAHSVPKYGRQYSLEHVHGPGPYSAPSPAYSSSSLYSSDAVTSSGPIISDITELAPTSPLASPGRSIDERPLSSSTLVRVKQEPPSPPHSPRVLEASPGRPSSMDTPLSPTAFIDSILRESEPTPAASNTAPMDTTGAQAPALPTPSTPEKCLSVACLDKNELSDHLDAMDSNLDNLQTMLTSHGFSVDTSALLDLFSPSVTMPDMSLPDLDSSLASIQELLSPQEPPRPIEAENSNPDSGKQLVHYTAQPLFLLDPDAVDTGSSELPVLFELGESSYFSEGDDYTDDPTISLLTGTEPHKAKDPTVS
Active and inactive are the calls of the source. No stated cut-off is given here; in the data, actives have a measured EC50 and inactives only a lower limit.
API: response.call in active, inactive

CCc1ccccc1NC(=O)CC(c1ccc(OC)cc1)n1cccc1 (stereo not given); inactive

Q. State the result this test recorded for CCOC(=O)CC1C(=O)NCCN1S(=O)(=O)c1cc(Cl)c(Cl)cc1Cl (stereo not given) .
A. inactive

Q. Lab log entry: Cc1cc2c3c(c1)C1(C(=O)N3C(C)(C)CC2C)C(C#N)=C(N)Oc2cc(O)ccc21 (stereo not given) — outcome as called in the assay?
A. active

Q. Hi, sorry to bother you, what did the test record for CC1=C(C#N)C(=O)N(CCO)C(=O)/C1=N/Nc1ccc2c(c1)COC2=O ?
A. active

Q. State the result this test recorded for COc1ccc(-n2nc3c(N4CCC(C(=O)N5CCC(C)CC5)CC4)nnc(C)c3c2C)cc1 .
A. inactive

Q. How did this test come out for Cc1ccc(N(Cc2ccc(C(=O)Nc3ccccc3C(=O)NCc3ccco3)cc2)S(C)(=O)=O)cc1C ?
A. inactive

Q. Test call for this molecule, please: Cc1ccccc1NC(=O)C(=Cc1ccc(C(=O)O)cc1)C(=O)Nc1ccccc1C
A. active

Q. Answer briefly: the call reported for Nc1nc2ccccc2n1/N=C/c1ccc([N+](=O)[O-])s1 in this assay.
A. active

Q. For this molecule, state the assay outcome: CCCCCCNC(=O)CN=C(S)N(Cc1cccs1)C1CCCCC1
A. inactive

Q. Hi team, can someone confirm the assay call for Cn1c(=O)c(/C=C/c2ccc(F)cc2)nc2ccccc21 ?
A. active

Q. Which outcome did this test record for the molecule Oc1ccc2ccccc2c1CN1CCN(c2ccccc2)CC1 ?
A. active

Q. GET /call?item= O=S(=O)(c1ccc(Cl)c(NC(=S)N/N=C/c2ccc(O)cc2)c1)N1CCOCC1 returns the recorded outcome of this test.
A. inactive

Q. Answer briefly: the call reported for Cc1cc(C)c2c(NC(=O)C3CC3)nn(C)c2n1 in this assay.
A. inactive

Q. Kindly provide the recorded test outcome for the following molecule: COc1ccc2c(C)cc(N3CCCCCC3)nc2c1
A. inactive

Q. Outcome logged for CCOC(=O)C(=Cc1c[nH]c2ccc(S(=O)(=O)N(C)C)cc12)C(=O)OCC in this assay:
A. active

Q. Status in this test for CC(=O)c1cccc(N(CC(=O)Nc2ccc(F)cc2F)S(C)(=O)=O)c1 ?
A. active

Q. Which outcome was assigned to Brc1ccccc1-n1nnc(-c2cnc3ccccc3c2)n1 in this test?
A. inactive

Q. Test call for this molecule, please: Cc1ccc(-c2[nH]ncc2C(=O)c2ccc(Br)cc2)c(O)c1
A. inactive

Q. # fetch the recorded call for Cc1ccc(-c2c3c(=O)n(C)c(=O)n(C)c3cn2-n2cnnc2)cc1 here
A. active

Q. Which outcome did this test record for the molecule Cc1ccc(/C=c2\s/c(=C(/C#N)C(=O)N3CCCC3)n(Cc3ccco3)c2=O)s1 ?
A. active
